- Procedure Text: probe aDKK1 binding to arrayed compounds – biochemical, biotinylated probe, 635/667 nm fluorescence, primary screen (AID 1099);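 further: score merges 667nm spot fluorescence with signal to noise across triplicate slides; reference of the scale not given here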
- Experimental Conditions: small-molecule microarray, higher = more signal
True means recorded composite z-score is -0.05 or above; False means it is below -0.05.

Lookup: Entry "C=CC[C@]1(C(=O)N2CCOCC2)N=C(c2ccc(OCCCO)cc2)O[C@H]1c1ccccc1N=[N+]=[N-]" : is its composite z-score no less than -0.05?
Found: True

Lookup: Entry CN1C(=O)C2C=CC(C(O)c3c(F)cccc3Cl)N(NC(=O)OC(C)(C)C)C2C1=O (configuration not stated) : is its composite z-score no less than -0.05?
Found: True

Lookup: Entry "C=C(CCCC)/C(=C/C[C@H](OC(=O)c1ccncc1)c1ccc(OCCO)cc1)c1cc(C(=O)OC)ccc1OC" : is its composite z-score no less than -0.05?
Found: False

Lookup: Entry "Cc1ccc([C@H]2C(C(=O)O)=CCN2S(=O)(=O)c2ccc(C)cc2)cc1" : is its composite z-score no less than -0.05?
Found: True

Lookup: Entry "COC(=O)[C@]1(CCC(=O)OC(C)(C)C)N=C(c2ccc(OCCCO)cc2)O[C@@H]1c1ccccc1" : is its composite z-score no less than -0.05?
Found: True

Lookup: Entry "CN(C)CCCCCCNC(=O)[C@@H]1C[C@@H]2C(=O)N[C@@H](CCCC[N+](C)(C)C)C(=O)N2[C@@H]1c1ccc(O)cc1" : is its composite z-score no less than -0.05?
Found: True

Lookup: Entry CC1CC/C=C\[C@H]2OC34C=CCN(c5ccc6ccccc6c5)C(=O)[C@H]3N(CCO)C(=O)[C@@H]4C2C(=O)O1 (some centres not stated) : is its composite z-score no less than -0.05?
Found: False

Lookup: Entry CCCCN1CC=CC23O[C@@H]4/C=C\CCCOC(=O)C4[C@H]2C(=O)N(CCCO)[C@@H]3C1=O (some centres not stated) : is its composite z-score no less than -0.05?
Found: False

Lookup: Entry CCCCCCCCCCC(O)C1C=CC2C(=O)NC(=O)C2N1Nc1ccc(Cl)cc1Cl (configuration not stated) : is its composite z-score no less than -0.05?
Found: False

Lookup: Entry "CC(C)NC(=O)[C@@]1(Cc2ccccc2I)c2ccccc2C(=O)N(Cc2ccccc2Cl)[C@H]1c1ccc(CO)cc1" : is its composite z-score no less than -0.05?
Found: True

Lookup: Entry "CC(C)OC(=O)C=C1C[C@@H](c2cccc(Cl)c2)O[C@@H](c2cccc(Cl)c2)O1" : is its composite z-score no less than -0.05?
Found: True

Lookup: Entry "CC(C)[Si](C#C[Si](C(C)C)(C(C)C)C(C)C)(O[C@H](C)c1cn(Cc2ccccc2)nn1)C(C)C" : is its composite z-score no less than -0.05?
Found: False

Lookup: Entry "NCCCCCNC(=O)[C@H]1C[C@H]2C(=O)N3CCC[C@H]3C(=O)N2[C@H]1c1ccc(O)cc1" : is its composite z-score no less than -0.05?
Found: True

Lookup: Entry "CN(C)C(=O)[C@]1(Cc2ccccc2)N=C(c2ccc(OCCCO)cc2)O[C@@H]1c1ccccc1N=[N+]=[N-]" : is its composite z-score no less than -0.05?
Found: True

Lookup: Entry "COC(=O)[C@@]1(Cc2ccccc2)[C@H]2c3cc(C(=O)N(C)C)n(CCc4c[nH]c5ccc(O)cc45)c3C[C@H]2CN1C(=O)c1ccccc1" : is its composite z-score no less than -0.05?
Found: True

Lookup: Entry "COCC(=C=CC[C@H](O)c1cccc(OCCO)c1)CCO" : is its composite z-score no less than -0.05?
Found: True

Lookup: Entry "CC(C)C(=C=CC[C@H](O)c1ccc(CO)o1)CCO" : is its composite z-score no less than -0.05?
Found: False

Lookup: Entry "CCCCC(=C=CC[C@@H](O)c1cccc(OCCO)c1)C[C@@H](O)c1ccccn1" : is its composite z-score no less than -0.05?
Found: False

Lookup: Entry "CCOC(=O)C[C@H]1[C@H](OC(=O)c2ccc(-c3ccccc3)cc2)[C@@H](NC(=O)c2ccccc2)c2cc(OCCCO)ccc2N1C(=O)Cc1ccc(OC)cc1" : is its composite z-score no less than -0.05?
Found: True

Lookup: Entry NC(=O)N1C(=O)C2C(C1=O)C1C=C(CCCO)C2C(C2CC2)N1Cc1cc2c(cc1Br)OCO2 (configuration not stated) : is its composite z-score no less than -0.05?
Found: False

Lookup: Entry "C[N+](C)(C)CCCC[C@@H]1NC(=O)[C@@H]2C[C@H](C(=O)NCCCCCCNC(=O)CS)[C@H](c3ccc(O)cc3)N2C1=O" : is its composite z-score no less than -0.05?
Found: False

Lookup: Entry "O=C1O[C@@H](c2ccccc2)[C@@H](c2ccccc2)N2[C@@H](c3ccc(OCCO)cc3)[C@]3(C(=O)Nc4ccc(C#CCCO)cc43)[C@@H](C(=O)NC[C@H](O)c3ccccc3)[C@H]12" : is its composite z-score no less than -0.05?
Found: True

Lookup: Entry CC(=O)n1cc(C(O)C2C=CC3C(=O)NC(=O)C3N2Nc2ccccn2)c2ccccc21 (configuration not stated) : is its composite z-score no less than -0.05?
Found: False

Lookup: Entry "CCCC[C@@H]1C[C@H]1[C@@H](NC(=O)c1cccnc1)c1ccc(Cl)cc1" : is its composite z-score no less than -0.05?
Found: True

Lookup: Entry O=C1C2C=CC(C(O)C=Cc3ccc([N+](=O)[O-])cc3)N(n3cnnc3)C2C(=O)N1Cc1ccccc1 (configuration not stated) : is its composite z-score no less than -0.05?
Found: True

Lookup: Entry "O=C(CS)NCCCCCNC(=O)[C@H]1C[C@H]2C(=O)NCC(=O)N2[C@H]1c1cccc(OCCO)c1" : is its composite z-score no less than -0.05?
Found: False

Lookup: Entry CC1CC/C=C\[C@H]2OC34C=CCN(Cn5nnc6ccccc65)C(=O)[C@H]3N(CCCCCO)C(=O)[C@@H]4C2C(=O)O1 (some centres not stated) : is its composite z-score no less than -0.05?
Found: False

Lookup: Entry "COC(=O)[C@@]1(CCC(=O)OC(C)(C)C)N=C(c2ccc(OCCCO)cc2)O[C@H]1c1ccccc1" : is its composite z-score no less than -0.05?
Found: True

Lookup: Entry OCC1C=C(/C=C/c2ccccc2)CN1Cc1ccccc1Br (configuration not stated) : is its composite z-score no less than -0.05?
Found: True

Lookup: Entry "COCCOC(=O)N1C(=O)[C@@]2(c3ccccc31)[C@H](C(=O)N1CCCCCCC1)[C@H]1C(=O)O[C@H](c3ccccc3)[C@H](c3ccccc3)N1[C@@H]2c1ccc(OCCO)cc1" : is its composite z-score no less than -0.05?
Found: True

Lookup: Entry "COCCOC(=O)N1C(=O)[C@@]2(c3cc(C#Cc4ccc(OC)cc4)ccc31)[C@H](c1ccc(O)cc1)N1[C@H](c3ccccc3)[C@H](c3ccccc3)OC(=O)[C@H]1[C@@H]2C(=O)Nc1nc2ccccc2s1" : is its composite z-score no less than -0.05?
Found: True

Lookup: Entry "O=C(NC1CC1)[C@@H]1c2ccccc2C(=O)N(C2Cc3ccccc3C2)[C@H]1c1ccc(CO)cc1" : is its composite z-score no less than -0.05?
Found: False
